tgt: Retinoic acid receptor alpha (Homo sapiens)
method.notes: ATG_DR5_RAR_CIS: Attagene CIS-FACTORIAL HepG2 Assay for human Retinoic Acid Receptor Alpha (RARE), DR5 submotif (AID 2282934)
measurement.parameters: HepG2 Attagene cis-factorial RARE DR5 reporter, mRNA; actives raise or lower the signal
Activity calls are given as the source filed them. How the source made its calls: active means hit-call score of the fitted dose curve at least 0.9, where 1 is the maximum; inactive means score below 0.9.
Labels: TRUE (active), FALSE (inactive)

>  <molecule>
COc1cc(C(=O)NC2CCN(C)CC2)ccc1Nc1ncc2c(n1)N(C1CCCC1)CC(F)(F)C(=O)N2C

>  <category.label>
TRUE

$$$$
>  <molecule>
CCO[Si](CCCNC(N)=O)(OCC)OCC

>  <category.label>
FALSE

$$$$
>  <molecule>
Cc1cc(F)ccc1-c1cc(N2CC[C@@H](O)[C@H]2CO)ncc1N(C)C(=O)C(C)(C)c1cc(C(F)(F)F)cc(C(F)(F)F)c1

>  <category.label>
FALSE

$$$$
>  <molecule>
O=c1[nH]sc2ccccc12

>  <category.label>
FALSE

$$$$
>  <molecule>
CCN(Cc1cccnc1)C(=O)c1cccc(Cl)c1[C@]1(C)C(=O)N(Cc2ccc(OC)cc2OC)c2ccc(Cl)cc21

>  <category.label>
TRUE

$$$$
>  <molecule>
Clc1cc(Cl)c2c(c1)N=C1CCCCCN1C2

>  <category.label>
FALSE

$$$$
>  <molecule>
CC[C@@H]1C[C@H](N(Cc2cc(C(F)(F)F)cc(C(F)(F)F)c2)C(C)=O)c2cc(C(F)(F)F)ccc2N1C(=O)OC(C)C

>  <category.label>
TRUE

$$$$
>  <molecule>
CC(O)CC(C)(C)O (centres undefined)

>  <category.label>
FALSE

$$$$
>  <molecule>
OC12N=C(c3ccccc3)SC1Cc1cc(Cl)ccc12 (centres undefined)

>  <category.label>
FALSE

$$$$
>  <molecule>
CCCCCCCCOC(=O)c1cc(O)c(O)c(O)c1

>  <category.label>
FALSE

$$$$
>  <molecule>
CCCCCCCCN(C)CCCCCCCC

>  <category.label>
FALSE

$$$$
>  <molecule>
O=C1CCC(C2CCCCC2)CC1

>  <category.label>
FALSE

$$$$
>  <molecule>
NCc1cccc(C2CCN(C(=O)c3ccc(C#Cc4ccccc4F)o3)CC2)c1

>  <category.label>
FALSE

$$$$
>  <molecule>
CN(C[C@@H](CC[N+]12CCC(C3CCCCC3)(CC1)CC2)c1ccc(Cl)c(Cl)c1)C(=O)c1cc(C(F)(F)F)cc(C(F)(F)F)c1

>  <category.label>
FALSE

$$$$

====

method.notes: BSK_LPS_PGE2: BioMAP Diversity Plus: LPS Assay for Prostaglandin E2 (PGE2) Biomarker Activity (AID 2283082)
measurement.parameters: primary human HUVEC with PBMC; actives raise or lower the signal
Activity calls are given as the source filed them. Rule for the calls: active = hit-call score of the fitted dose curve at least 0.9, where 1 is the maximum; inactive = score below 0.9.
Outcomes: 1.0 (active), 0.0 (inactive)

>  <compound>
Clc1ccccc1C(c1ccccc1)(c1ccccc1)n1ccnc1

>  <category.label>
1.0

$$$$
>  <compound>
CCOC(=O)O[C@H](C)OC(=O)c1ccc2c(c1)cc(C(=O)NC1CCN(C(C)C)CC1)n2Cc1cc(-c2ccc(Cl)s2)on1

>  <category.label>
1.0

$$$$
>  <compound>
CN(C)c1ccc(C(=C2C=CC(=[N+](C)C)C=C2)c2ccc(N(C)C)cc2)cc1

>  <category.label>
1.0

$$$$
>  <compound>
O=C(O)c1ccccc1C(=O)OCc1ccccc1

>  <category.label>
0.0

$$$$
>  <compound>
Cc1cccc2ccccc12

>  <category.label>
0.0

$$$$
>  <compound>
Cc1cc(F)ccc1-c1cc(N2CC[C@@H](O)[C@H]2CO)ncc1N(C)C(=O)C(C)(C)c1cc(C(F)(F)F)cc(C(F)(F)F)c1

>  <category.label>
0.0

$$$$
>  <compound>
CO[C@H]1/C=C/O[C@@]2(C)Oc3c(C)c(O)c4c(O)c(c(/C=N/N5CCN(C)CC5)c(O)c4c3C2=O)NC(=O)/C(C)=C\C=C\[C@H](C)[C@H](O)[C@@H](C)[C@@H](O)[C@@H](C)[C@H](OC(C)=O)[C@@H]1C

>  <category.label>
0.0

$$$$
>  <compound>
CC[C@H](NC(=O)c1cc(F)ccc1NS(=O)(=O)c1cccc2cccnc12)c1ccccc1

>  <category.label>
1.0

$$$$
>  <compound>
CN1C(=O)N(c2ccccc2Br)Cc2cnc(Nc3ccc4c(c3)OCC(CO)O4)nc21 (stereo unspecified)

>  <category.label>
1.0

$$$$
>  <compound>
COc1ccc2cc(S(=O)(=O)N[C@H](CC(=O)N[C@H](Cc3ccc(CN4[C@H](C)CCC[C@@H]4C)cc3)C(=O)N(C)C(C)C)c3ccc4c(c3)OCO4)ccc2c1

>  <category.label>
1.0

$$$$
>  <compound>
Clc1cc(Cl)c2c(c1)N=C1CCCCCN1C2

>  <category.label>
0.0

$$$$
